Assay: NCI Yeast Anticancer Drug Screen. Data for the mlh1 rad18 strain (AID 175)
Conditions: S. cerevisiae mlh1 rad18 strain growth inhibition; at 5.0 µM (retest, dose inferred, filed as 0.5); active compounds read high
The panel holds about 79,000 compounds, 15% with a hit somewhere; the sample as a whole holds those more often.
observed.property: growth inhibition (%)

In [3]: df
Out[3]:
                                   compound  value_observed
0  O=S(=O)(ON=C1C=CC(=NOS(=O)(=O)c2ccccc2)C=C1)c1ccccc1              48
1  CC(C)(C)c1cc(C(P(=O)(c2ccccc2)c2ccccc2)P(=O)(c2ccccc2)c2ccccc2)cc(C(C)(C)C)c1O              -3
2  CN1C(=O)CCC2[C@@H]3CC=C4C[C@@H](O)CC[C@]4(C)C3CC[C@@]21C (stereo not given in full)              -7
3                  Cc1cccc2c(CC(=O)O)cccc12               4
4  C[CH2][Ge]([CH2]C)[CH2]C.C[CH2][Ge]([Cl])[CH2]C.C[CH2][Ge][CH2]C              12
5  OC(C/C(=N\N=C(/CC(O)(C(F)(F)F)C(F)(F)F)c1ccccc1)c1ccccc1)(C(F)(F)F)C(F)(F)F              -8
6  NC1=NCN(C2OC(COCc3ccccc3)C(OCc3ccccc3)C2OCc2ccccc2)C(=O)N1 (stereo not given)               1
7                  O=C1Nc2c(ccc(Cl)c2I)C1=O             -27
8  CN1CCN(CCSC2Cc3cc(Cl)ccc3Sc3ccccc32)CC1 (stereo not given)              29
9                       Nc1ccccc1CCc1ccccc1              28
